targetDesc: DCN1-like protein 1 (Homo sapiens, UniProt Q96GG9)
Sequence (Q96GG9 whole entry, the tested form may be a part): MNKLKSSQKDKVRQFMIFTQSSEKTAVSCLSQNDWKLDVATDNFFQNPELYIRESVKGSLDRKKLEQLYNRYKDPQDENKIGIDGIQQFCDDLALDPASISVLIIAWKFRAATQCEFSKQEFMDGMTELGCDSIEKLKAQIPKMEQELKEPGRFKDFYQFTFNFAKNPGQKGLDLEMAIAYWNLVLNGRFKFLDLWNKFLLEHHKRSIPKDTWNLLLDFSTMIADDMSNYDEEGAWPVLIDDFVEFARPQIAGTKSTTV
assayOverview: Binding affinity to N-terminal His6-tagged recombinant human DCN1 expressed in Escherichia coli BL21-AI assessed as reduction in DCN1-FAM-labelled N-terminal acetylated UBE2M (1 to 12 residues) protein-protein interaction after 30 mins by fluorescence polarization competitive binding assay
# maps each entry to its IC50

INSERT INTO measurements (molsmiles, quantityname, recordedmeasurement) VALUES
  ('N#Cc1c(Sc2nccs2)nc(SCc2cn(Cc3ccccc3)nn2)nc1-c1ccc(Cl)cc1', 'IC50', '> 10 µM'),
  ('C#CCSc1nc(Sc2ccccn2)c(C#N)c(-c2cc(OC)c(OC)c(OC)c2)n1', 'IC50', '> 10 µM'),
  ('C#CCSc1nc(Nc2cccc(C(F)(F)F)c2)c(C#N)c(-c2cc(OC)c(OC)c(OC)c2)n1', 'IC50', '> 10 µM'),
  ('C#CCSc1nc(Sc2nnnn2C)c(C#N)c(-c2cccs2)n1', 'IC50', '> 20 µM'),
  ('C#CCSc1nc(Sc2nccs2)c(C#N)c(-c2ccc[nH]2)n1', 'IC50', '> 20 µM'),
  ('C#CCSc1nc(Sc2nccs2)c(C#N)c(-c2cc(OC)c(OC)c(OC)c2)n1', 'IC50', '0.141 µM'),
  ('C#CCSc1nc(Sc2nccs2)c(C#N)c(-c2ccc(C)cc2)n1', 'IC50', '0.0269 µM'),
  ('C#CCSc1nc(Sc2nnnn2C)c(C#N)c(-c2ccccc2)n1', 'IC50', '> 20 µM'),
  ('C#CCSc1nc(Sc2nc3ccccc3s2)c(C#N)c(-c2cc(OC)c(OC)c(OC)c2)n1', 'IC50', '> 10 µM'),
  ('C#CCSc1nc(Sc2nnc(C)s2)c(C#N)c(-c2cc(OC)c(OC)c(OC)c2)n1', 'IC50', '0.153 µM');

What value of IC50 has been reported for the following compound? `CCCSc1nc(Sc2nccs2)c(C#N)c(-c2ccc(Cl)cc2)n1`
> 10 µM

What value of IC50 has been reported for the following compound? `C#CCSc1nc(-c2cc(OC)c(OC)c(OC)c2)c(C#N)c(N2CCNCC2)n1`
> 10 µM

What value of IC50 has been reported for the following compound? `C#CCSc1nc(Sc2nc(C)cs2)c(C#N)c(-c2cc(OC)c(OC)c(OC)c2)n1`
> 10 µM

What value of IC50 has been reported for the following compound? `C#CCSc1nc(Sc2nccn2C)c(C#N)c(-c2cc(OC)c(OC)c(OC)c2)n1`
> 10 µM

What value of IC50 has been reported for the following compound? `C#CCSc1nc(Sc2nnnn2C)c(C#N)c(-c2c[nH]c3ccccc23)n1`
> 20 µM

====

targetDesc: DCN1-like protein 1 (Homo sapiens)
assayOverview: Binding affinity to N-terminal His6-tagged recombinant human DCN1 expressed in Escherichia coli BL21-AI assessed as reduction in DCN1-FAM-labelled N-terminal acetylated UBE2M (1 to 12 residues) protein-protein interaction after 30 mins by fluorescence polarization competitive binding assay
pIC50: −log10 of the molar value.
quantityName: pIC50

INSERT INTO measurements (molsmiles, recordedmeasurement) VALUES
  ('C#CCSc1nc(-c2cc(OC)c(OC)c(OC)c2)c(C#N)c(N2CCSCC2)n1', '< 5.00');

What value of pIC50 has been reported for the following compound? `C#CCSc1nc(Sc2nnnn2C)c(C#N)c(-c2ccc[nH]2)n1`
< 4.70

What value of pIC50 has been reported for the following compound? `C#CCSc1nc(Nc2nnnn2C)c(C#N)c(-c2cc(OC)c(OC)c(OC)c2)n1`
< 5.00

What value of pIC50 has been reported for the following compound? `C=CCSc1nc(Sc2nccs2)c(C#N)c(-c2ccc(Cl)cc2)n1`
< 5.00

What value of pIC50 has been reported for the following compound? `C#CCSc1nc(Sc2nnc(N)s2)c(C#N)c(-c2cc(OC)c(OC)c(OC)c2)n1`
6.09

What value of pIC50 has been reported for the following compound? `C#CCSc1nc(Nc2ccc(OC)cc2)c(C#N)c(-c2cc(OC)c(OC)c(OC)c2)n1`
< 5.00

What value of pIC50 has been reported for the following compound? `C#CCSc1nc(-c2cc(OC)c(OC)c(OC)c2)c(C#N)c(N2CCCCC2)n1`
< 5.00

What value of pIC50 has been reported for the following compound? `C#CCSc1nc(Sc2nccs2)c(C#N)c(-c2ccc(Cl)c(Cl)c2)n1`
7.20

What value of pIC50 has been reported for the following compound? `C#CCSc1nc(Sc2nccs2)c(C#N)c(-c2ccc(Br)cc2)n1`
6.26

What value of pIC50 has been reported for the following compound? `C#CCSc1nc(Sc2nnnn2CCN(C)C)c(C#N)c(-c2cccc(Cl)c2)n1`
6.97

What value of pIC50 has been reported for the following compound? `C#CCSc1nc(Sc2nnnn2C)c(C#N)c(-c2ccc3oc(=O)ccc3c2)n1`
5.90

What value of pIC50 has been reported for the following compound? `C#CCSc1nc(Sc2nc(C)c(C)s2)c(C#N)c(-c2cc(OC)c(OC)c(OC)c2)n1`
< 5.00

What value of pIC50 has been reported for the following compound? `C#CCSc1nc(-c2cc(OC)c(OC)c(OC)c2)c(C#N)c(N2CCOCC2)n1`
< 5.00

Ref: ChEMBL document CHEMBL4396897
